Record type: log10(IC50) measurement. Applies to: Bifunctional epoxide hydrolase 2 (Homo sapiens, UniProt P34913)
Plainly stated, the numbers are log10 of IC50 given in nM.

The examples below pair each entry with its known result.
{"compound": "O=C(Nc1ccc(Cl)c(Cl)c1)Nc1ccc(Cl)c(Cl)c1", "system.tested": "Bifunctional epoxide hydrolase 2 (Homo sapiens, UniProt P34913)", "log10(IC50)": 1.45}
{"compound": "CCOCCOCC(OC(=O)CCCNC(=O)NC12CC3CC(CC(C3)C1)C2)c1ccccc1 (stereo not given)", "system.tested": "Bifunctional epoxide hydrolase 2 (Homo sapiens, UniProt P34913)", "log10(IC50)": 0.62}
{"compound": "O=C(Nc1cccc([N+](=O)[O-])c1)N[C@H]1CC[C@H](OCc2c(F)cccc2F)CC1", "system.tested": "Bifunctional epoxide hydrolase 2 (Homo sapiens, UniProt P34913)", "log10(IC50)": 1.95}

Batch request: log10(IC50) per item, same order as input.
1. O=C(Nc1ccc(OCCN2CCOCC2)c(Cl)c1)NC12CC3CC(CC(C3)C1)C2
2. O=C(Nc1cccc(Oc2ccccc2)c1)NC12CC3CC(CC(C3)C1)C2
3. COC(=O)c1cccc(O[C@H]2CC[C@@H](NC(=O)NC34CC5CC(CC(C5)C3)C4)CC2)c1
4. O=C(NCCCCCOCCN1CCOCC1)NC12CC3CC(CC(C3)C1)C2
5. CC(C)OCCOCCOCCCCCNC(=O)NC12CC3CC(CC(C3)C1)C2
6. O=C(NCCCCCOCCOCCOCc1ccccc1)NC12CC3CC(CC(C3)C1)C2
7. O=C(NC1CCCC(C(=O)NN2CCOCC2)C1)NC12CC3CC(CC(C3)C1)C2 (stereo not given)

Output line:
[-0.22, -0.05, 0.40, 0.36, 0.61, 1.03, 1.41]

---

Record type: IC50 measurement. Applies to: Bifunctional epoxide hydrolase 2 (Homo sapiens, UniProt P34913)
Answers are plain numbers, in nM.

The examples below pair each entry with its known result.
{"input.smiles": "O=C(Nc1ccc(OCCOCCOCC(F)(F)F)cc1)NC12CC3CC(CC(C3)C1)C2", "unit": "nM", "IC50": 3.3}
{"input.smiles": "CCOCCOCCOCCCCCCNC(=O)NC12CC3CC(CC(C3)C1)C2", "unit": "nM", "IC50": 1.2}
{"input.smiles": "O=C(Nc1ccc(I)cc1)NC12CC3CC(CC(C3)C1)C2", "unit": "nM", "IC50": 0.5}
{"input.smiles": "CCOC(=O)C(F)(F)Oc1ccc(NC(=O)NC23CC4CC(CC(C4)C2)C3)cc1", "unit": "nM", "IC50": 0.8}
{"input.smiles": "O=C(NC12CC3CC(CC(C3)C1)C2)N[C@H]1CC[C@@H](Oc2ccc(C(F)(F)F)cn2)CC1", "unit": "nM", "IC50": 1.8}

Batch request: IC50 per item, same order as input.
1. O=C(Nc1ccc(OC(F)(F)F)cc1)NC1CCCCC1
2. O=C(Nc1cccc(C(=O)NCCCN2CCOCC2)c1)NC12CC3CC(CC(C3)C1)C2
3. COCC(=O)c1ccc(O[C@H]2CC[C@@H](NC(=O)NC34CC5CC(CC(C5)C3)C4)CC2)cc1
4. O=C(Nc1ccc(N2CCOCC2)cc1)NC12CC3CC(CC(C3)C1)C2
5. O=C(Nc1ccc(CC(=O)c2ccccc2)cc1)NC12CC3CC(CC(C3)C1)C2

Output line:
0.8
57.9
3.8
5.2
4.7
